target: EA.hy926 cell surface associated TFPI (human) (UniProt P10646); experiment: flow cytometry on EA.hy926 cells, APC anti-human IgG secondary, median fluorescence intensity
Measure: pEC50
Field pEC50 (float): negative decimal logarithm of the concentration in molar.

binder="Fab 0313 (Fab fragment of mAb 2000) (Fab, V domains shown) VH: EVQLVESGGGLVKPGGSLRLSCAASGFTFSNYAMSWVRQAPGKGLEWVSTISRSGSYSYYADSVKGRFTISRDNAKNSLYLQMNSLRAEDTAVYYCARLGGYDEGDAMDSWGQGTTVTVSS VL: DIVMTQTPLSLSVTPGQPASISCKSSQSLLESDGKTYLNWYLQKPGQSPQLLIYLVSILDSGVPDRFSGSGSGTDFTLKISRVEAEDVGVYYCLQATHFPQTFGGGTKVEIKR" result_number=7.59
binder="mAb 2021 (antibody, human IgG4 S228P, kappa, V domains shown) VH: EVQLVESGGGLVKPGGSLRLSCAASGFTFSNYAMSWVRQTPEKRLEWVATISRSGSYSYFPDSVQGRFTISRDNAKNSLYLQMNSLRAEDTAVYYCARLGGYDEGDAMDSWGQGTTVTVSS VL: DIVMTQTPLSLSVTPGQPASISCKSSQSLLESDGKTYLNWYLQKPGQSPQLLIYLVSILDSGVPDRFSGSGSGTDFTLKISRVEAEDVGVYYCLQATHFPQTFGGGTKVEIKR" result_number=9.96
binder="Fab 0088 (Fab fragment of mAb 2021) (Fab, V domains shown) VH: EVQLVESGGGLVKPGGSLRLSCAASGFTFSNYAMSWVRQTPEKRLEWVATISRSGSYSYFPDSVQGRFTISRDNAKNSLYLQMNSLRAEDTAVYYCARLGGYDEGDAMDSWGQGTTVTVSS VL: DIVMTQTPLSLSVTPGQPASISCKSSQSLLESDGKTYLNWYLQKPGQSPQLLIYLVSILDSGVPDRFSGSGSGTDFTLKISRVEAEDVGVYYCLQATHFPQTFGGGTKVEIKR" result_number=9.51

Name the recorded pEC50 for Fab 0094 (Fab fragment of mAb 2007) (Fab, V domains shown) VH: EVQLVESGGGLVKPGGSLRLSCAASGFTFSNYAMSWVRQAPGKGLEWVSTISRSGSYSYYPDSVKGRFTISRDNAKNSLYLQMNSLRAEDTAVYYCARLGGYDEGDAMDSWGQGTTVTVSS VL: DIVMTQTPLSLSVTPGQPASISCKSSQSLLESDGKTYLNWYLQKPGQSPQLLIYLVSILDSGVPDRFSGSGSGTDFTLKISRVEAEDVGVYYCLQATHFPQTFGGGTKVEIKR . 8.42
